Origin of values: patent US20240400579A1

- target.entity: human emopamil binding protein and human 7-dehydrocholesterol reductase co-expressing cell membrane (Homo sapiens (Human))
- Sequence (Q15125 whole entry): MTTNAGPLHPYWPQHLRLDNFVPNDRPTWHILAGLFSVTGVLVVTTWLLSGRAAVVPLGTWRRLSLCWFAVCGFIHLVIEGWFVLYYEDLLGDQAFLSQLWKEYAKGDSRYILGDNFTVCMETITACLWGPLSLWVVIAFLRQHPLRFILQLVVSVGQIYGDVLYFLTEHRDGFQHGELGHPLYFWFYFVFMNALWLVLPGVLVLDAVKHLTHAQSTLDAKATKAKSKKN
result.type: log10 of Ki (log10 of the value in nM)
Each number you see is log10 of Ki, and the unit inside the log is nM.

Consider the worked cases shown below.
> print(dat)
                                   compound  result.type  recorded.number
1  O=S1(=O)CC2(CCN(CC[C@H](F)c3ccc(C(F)(F)F)cc3)C2)C1 (single isomer, unassigned) [Compound 122B]  log10 of Ki             1.14
2  CC(C)(Cc1ccc(C(F)(F)F)cc1)CN1CCC2(CC1)CS(=O)(=O)C2 [Example 153]  log10 of Ki             0.86

Prompt: Look up log10 of Ki for this compound: CC(C)(CN1CC[C@@]2(CCS(=O)(=O)C2)C1)Oc1ccc(C(F)(F)F)cc1 (single isomer, unassigned) [Compound 141A]
Completion: 1.41

Prompt: Using the record for O=S1(=O)CC2(CCN(CCCc3ccc(F)c(F)c3)CC2)C1 [Compound 225] , report its log10 of Ki.
Completion: 1.39

Prompt: Given O=S1(=O)CC2(CCN(CCOc3ccc(C(F)(F)F)cc3)CC2)C1 [Compound 226] , state its recorded log10 of Ki.
Completion: 0.97

Prompt: # log10 of Ki lookup, item O=S1(=O)CC2(CCN(CCOc3ccnc([C@H]4CC[C@H](C(F)(F)F)CC4)c3)CC2)C1 [245B*]
Completion: 1.29

Prompt: Which log10 of Ki is reported for this compound? C[C@@H](Cc1ccc(C(F)(F)F)cn1)CN1CCC2(C1)CS(=O)(=O)C2 (single isomer, unassigned) [121A*]
Completion: 2.06

* * *

- target.entity: human emopamil binding protein and human 7-dehydrocholesterol reductase co-expressing cell membrane (Homo sapiens (Human))
result.type: Ki
Answer with the value and then the unit.

As a guide, the following entries are already answered.
> print(dat)
                                   compound   result
1  C[C@@H](Cc1ccc(C(F)(F)F)cc1)CN1CCC2(C1)CS(=O)(=O)C2 (single isomer, unassigned) [114A*]  18.3 nM
2  C[C@@H](CN1CCC2(CC1)CS(=O)(=O)C2)Oc1ccc(F)c(F)c1 (single isomer, unassigned) [221A*]  25.5 nM
3  CC(C)(CN1CCC2(C1)CS(=O)(=O)C2)Oc1ccccc1F [Example 133]  86.6 nM
4  CC(Cc1cc(C(F)(F)F)nn1C(C)C)CN1CCC2(C1)CS(=O)(=O)C2 (racemic) [Example 155]   187 nM
5  C[C@@H](Cc1ccc([C@H]2CC[C@](O)(C(F)(F)F)CC2)c(Cl)c1)CN1CCC2(C1)CS(=O)(=O)C2 (stereo in doubt) [116A*]  10.5 nM
6  O=S1(=O)CC2(CCN(CCCc3ccc(OC(F)(F)F)cc3)CC2)C1 [Compound 213]    12 nM

// switching to the query compound
Prompt: Entry CC(C)(CN1CCC2(C1)CS(=O)(=O)C2)Oc1ccc(C(F)(F)F)nc1 [Example 135] has what Ki?
Completion: 39.6 nM

* * *

- target.entity: human emopamil binding protein and human 7-dehydrocholesterol reductase co-expressing cell membrane (Homo sapiens (Human))
Below is a list of entries, each paired with its recorded pKi value.
Lab note: report pKi as minus log10 of the concentration in molar units, number only.

Below are worked cases with known answers.
> print(dat)
                                   compound  result.type  recorded.number
1  C[C@H](Cc1ccc(C(F)(F)F)nc1)CN1CCC2(C1)CS(=O)(=O)C2 (single isomer, unassigned) [118B*]          pKi             7.30
2  CC(C)(Cc1ccc(C(F)(F)F)nc1)CN1CC[C@]2(CCS(=O)(=O)C2)C1 (single isomer, unassigned) [Compound 148A]          pKi             7.63
3  CCC(C)(C)c1ccc(CC(C)CN2CCC3(C2)CS(=O)(=O)C3)cc1 (racemic)          pKi             7.99
4  C[C@H](CN1CCC2(C1)CS(=O)(=O)C2)Oc1ccc(C(F)(F)F)cc1 (single isomer, unassigned) [115A*]          pKi             7.72
5  CC(C)n1nc(C(F)(F)F)cc1C[C@@H](C)CN1CCC2(C1)CS(=O)(=O)C2 (single isomer, unassigned) [235A*]          pKi             7.71
6  O=S1(=O)CC2(CCN(CCOc3cnc(C4CCCCC4)c(Cl)c3)CC2)C1          pKi             8.71

Then there is this compound:
Prompt: Please report the recorded pKi for C[C@H](Cc1ccc(C2CCC(F)(F)CC2)c(Cl)c1)CN1CCC2(C1)CS(=O)(=O)C2 (single isomer, unassigned) [117B*] .
Completion: 8.01
